Cited source for all entries: patent US20220306765A1

Listed next: entries and their corresponding binding percentage vs wild-type CLDN18.2.
test-target: human CLDN18.2-mRFP N37D (human)
Sequence (chain, as listed by the source N37D N37D limits assumed): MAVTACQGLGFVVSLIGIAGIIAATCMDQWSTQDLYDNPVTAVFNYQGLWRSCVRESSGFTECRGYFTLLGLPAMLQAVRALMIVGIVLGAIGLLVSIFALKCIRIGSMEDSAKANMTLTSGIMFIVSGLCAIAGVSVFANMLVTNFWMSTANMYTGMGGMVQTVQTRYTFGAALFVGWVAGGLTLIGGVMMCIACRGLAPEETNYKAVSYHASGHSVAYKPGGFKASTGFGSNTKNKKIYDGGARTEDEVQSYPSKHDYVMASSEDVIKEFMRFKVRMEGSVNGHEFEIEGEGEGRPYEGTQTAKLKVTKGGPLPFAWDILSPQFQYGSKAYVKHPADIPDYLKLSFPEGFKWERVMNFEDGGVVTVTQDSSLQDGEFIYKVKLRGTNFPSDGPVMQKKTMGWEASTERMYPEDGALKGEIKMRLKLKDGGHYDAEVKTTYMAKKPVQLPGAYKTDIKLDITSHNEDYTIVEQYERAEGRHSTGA
test-method-notes: FACS, transfected HEK293, 10 µg/ml antibody;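 also: antibody binding read by flow cytometry with a FITC-labelled anti-human IgG secondary, gated on RFP-positive cells, each mutant signal expressed against wild-type CLDN18.2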
Note: unit % is implicit; provide only the numeric part.

binder	binding percentage vs wild-type CLDN18.2 [%]
59A9-C (antibody, human IgG1, V domains shown, also called chimeric 59A9) VH: QITQKESGPGILQPSQTLSLTCSLSGFSLSTYFIGVGWIRQPSGKGLEWLAHIWWNDNKYYNTALKSRLTISKDTSNNQVFLKIASVDTADTATYYCARMGSGAWFTYWGQGTLVTVSA VL: DIVMTQSPSSLTVTAGEKVTMSCKSSQSLLNSGNQKNYLTWYQQKPGQPPKLLIYWASTRESGVPDRFTGSGSGTDFTLTISSVQAEDLAVYYCQNDYYYPLTFGSGTKLEIK	92.7
11F12-C (antibody, human IgG1, V domains shown, also called chimeric 11F12) VH: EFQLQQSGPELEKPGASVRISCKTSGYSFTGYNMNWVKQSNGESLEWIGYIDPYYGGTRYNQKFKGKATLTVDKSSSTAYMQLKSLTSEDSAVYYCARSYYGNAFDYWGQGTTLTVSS VL: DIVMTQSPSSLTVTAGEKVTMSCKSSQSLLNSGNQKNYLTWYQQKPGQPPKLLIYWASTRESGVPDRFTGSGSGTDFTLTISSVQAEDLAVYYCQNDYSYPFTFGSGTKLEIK	102

Proceeding to the next binder to report its binding percentage vs wild-type CLDN18.2.
The value of binding percentage vs wild-type CLDN18.2 measured for the binder 26G6-C (antibody, human IgG1, V domains shown, also called chimeric 26G6) VH: EFQLQQSGPELEKPGASVKISCKTSGYSFTGYNMNWVKQSNGQSLEWIGHIDPYYVTTTYNQKFRGKATLTVDKSSSTAYMQLKSLTSEDSAVYYCARSFYGNAFDYWGQGTTLTVSS VL: DIVMTQSPSSLTVTAGEKVTMSCKSSQSLFNSGNQKNYLTWYQQKPGQPPKLLIYWASTRESGVPDRFTGSGSGTDFTLTISSVQAEDLAVYYCQNDYSFPFTFGSGTKLEIK turned out to be 118
